- Test system: SK-MEL-28 melanoma
- METHOD_DESCRIPTION: NCI-60 one-dose screen, 48 h (100 = growth as untreated, 0 = no growth, -100 = all killed)
- MEASUREMENT_SETUP: 10 µM unless noted
About 83,000 compounds went through this panel and 20% of them were active in at least one assay; those are over-represented in the sample as a whole.
PROPERTY_LABEL: growth (%)
Only the number, expressed in %, is required.

Answered examples (10):
compound=Cc1c(C2=CCCCC2)c2ccccn2c1C(=O)c1cccc(S(=O)(=O)N2CCOCC2)c1 readout_number=101
compound=COc1ccc(OC)c(/C=C/[C@H]2O[C@@H](C)[C@H](O)[C@@H]2O)c1 readout_number=102
compound=C=C(C)[C@@H]1CC[C@]2(C(=O)N3CCN(C)CC3)CC[C@]3(C)[C@H](CC[C@@H]4[C@@]5(C)CCC(=O)C(C)(C)[C@@H]5CC[C@]43C)[C@@H]12 readout_number=92.7
compound=COc1cc(-c2cc(=O)oc3cc(O)ccc23)c(OC)c2c1OCO2 readout_number=97
compound="CN(Cc1ccccc1)c1nc(Cl)c(C2CC(c3ccc(Cl)cc3)=Cc3[nH][nH]c(=O)c32)s1 (stereo not given)" readout_number=103
compound=Cn1/c(=N/NC(N)=S)ccc2ccccc21 readout_number=117
compound=O=C(Nc1cccc(Cl)c1)c1cc(Cl)ccc1O readout_number=10.1
compound=COc1ccc2nc(N=Nc3c(O)ccc4ccccc34)sc2c1 readout_number=35.5
compound=O=C(CNCCO)Nc1ccc2ncnc(Nc3ccc(OCc4cccc(F)c4)c(Cl)c3)c2c1 readout_number=91
compound="O=C(c1ccccc1)N1N=C(c2ccc(-n3ccc(C(F)(F)F)n3)cc2)CC1c1ccc[nH]1 (stereo not given)" readout_number=92.2

Sure, the documented growth for "Cc1ccccc1-c1cc(Cc2ccc(F)cc2)c(=O)[nH]n1" is 118

Sure, the documented growth for "Cn1c(COC(=O)NCCc2ccccn2)nc2c(N3CCOCC3)nc(Cl)nc21" is -90.8

Sure, the documented growth for "O=C(Nc1ccc2ncnc(Nc3ccc(Oc4cccc(F)c4)c(Cl)c3)c2c1)c1ccc(CNCCO)cc1" is -44.9

Sure, the documented growth for "O=S(=O)(c1cccc(NC2=Nc3cccc4cccc2c34)c1)N1CCCC1" is 81.4

Sure, the documented growth for "CCNC(=O)c1[nH]cc(-c2ccc(OC)cc2)c1-c1cc(OC)c(OC)c(OC)c1" is 56.7

Sure, the documented growth for "COc1cc(-c2cc(=O)oc3cc(O)ccc23)cc(OC)c1OC" is 99.3

Sure, the documented growth for "COc1cc2nc(-c3ccc(C(F)(F)F)cc3)cc(OCCN3CCC(O)CC3)c2cc1OC" is 80.7

Sure, the documented growth for CCN1C(=O)N(CC)C2NC(SC)=NC21 (stereo not given) is 97.8

Sure, the documented growth for "CN1CCN(Cc2ccc(NC(=O)c3cncc(C#Cc4cnccc4C(F)(F)F)c3)cc2C(F)(F)F)CC1" is 56.6

Sure, the documented growth for "O=S(=O)(NCCCNc1nccc(-c2c(-c3ccc(F)c(O)c3)nc3sccn23)n1)c1ccc(F)cc1" is 9.19

* * *

- Tested on: OVCAR-3 ovarian
- METHOD_DESCRIPTION: NCI-60 one-dose screen, 48 h (100 = growth as untreated, 0 = no growth, -100 = all killed)
- MEASUREMENT_SETUP: 10 µM unless noted
This is part of a sample that, as a whole, favours compounds with a hit. Of some 83,000 tested, about 20% had one in any assay. Activity calls are given as the source filed them. The calls were made as follows: active = growth percent below 10; inactive = the rest.
PROPERTY_LABEL: growth

Answered examples (3):
compound=CC(=O)Nc1ccc(C(=O)Nc2cc(-c3ccccc3)ccc2N)cc1 result="75.2% (inactive)"
compound=COc1cc2nc(-c3ccc(C(F)(F)F)cc3)cc(OCCCN3CCCCC3)c2cc1OC result="60.1% (inactive)"
compound="Fc1ccc(C2CC(c3cccc(Nc4ccncc4)c3)=NN2c2cc(Cl)cc(Cl)c2)cc1 (stereo not drawn)" result="62.1% (inactive)"

Sure, the documented growth for "COc1ccc(-c2nc(N=Nc3c(O)[nH]c4ccccc34)nc(N3CCOCC3)c2C#N)cc1" is 67.4% (inactive)

Sure, the documented growth for "C=CCn1c(SCC(=O)Nc2ccc(C(=O)/C=C/c3cc(OC)c(OC)c(OC)c3)cc2)nnc1-c1cc(OC)c(OC)c(OC)c1" is -21% (active)

Sure, the documented growth for "C=CCn1c(SCC(=O)Nc2ccc(C(=O)/C=C/c3cc(OC)c(OC)c(OC)c3)cc2)nnc1-c1cc(-c2ccc(S(C)(=O)=O)cc2)nc2ccccc12" is 85.9% (inactive)

Sure, the documented growth for "CCN(CC)S(=O)(=O)c1cccc([N+](=O)[O-])c1" is 108% (inactive)

Sure, the documented growth for "COc1cc(-c2nc3occn3c2-c2ccnc(NCCNS(=O)(=O)c3ccc(Cl)cc3)n2)ccc1F" is 114% (inactive)

Sure, the documented growth for "N#Cc1c(Nc2ccccc2)nn2cc(-c3nc4ccccc4s3)c(N)nc12" is 97% (inactive)

Sure, the documented growth for "O=c1nc2n(nc1/C=C/c1ccco1)CC(c1ccc(Cl)cc1)=NN2" is 109% (inactive)

Sure, the documented growth for "O=S(=O)(NCCNc1nccc(-c2c(-c3ccc(F)c(O)c3)nc3sccn23)n1)c1ccccc1" is 81.6% (inactive)

Sure, the documented growth for CC1=CC2(C)/C=C(C)/C=C\CC(O)/C=C3/C=CC(=C4C(=O)OC2(CC1C)C4=O)OC3 (stereo not drawn) is -100% (active)

Sure, the documented growth for "CCCCCCCC(=O)Nc1nc2[nH]c(CN3CCN(Cc4cccc(I)c4)CC3)c(CN3CCN(Cc4cccc(I)c4)CC3)c2c(=O)[nH]1" is -95.8% (active)

Sure, the documented growth for "CCOC(=O)c1c(O)cc(-c2ccccc2)cc1-c1sc(N(C)Cc2ccccc2)nc1Cl" is 106% (inactive)

Sure, the documented growth for "Cc1nc2sc(C(=O)Nc3ccccc3)c(N)c2cc1C(=O)c1ccc(C(F)(F)F)cc1" is 110% (inactive)

Sure, the documented growth for "CS(=O)(=O)c1ccc(-c2cc(-c3nnc(SCC(=O)Nc4ccc(C(=O)/C=C/c5ccc(Cl)cc5)cc4)n3-c3ccccc3)c3ccccc3n2)cc1" is 102% (inactive)

Sure, the documented growth for NS(=O)(=O)c1cccc(NC(=O)C(=O)C2C(=O)Nc3ccccc32)c1 (stereo not drawn) is 96.6% (inactive)

Sure, the documented growth for "COc1ccc(-c2nc(SC(C)C)nc(NNC(N)=O)c2C#N)cc1" is 81% (inactive)

* * *

- Tested on: SF-268 CNS
- METHOD_DESCRIPTION: NCI-60 one-dose screen, 48 h
- MEASUREMENT_SETUP: 10 µM unless noted
- Protocol: Cells are grown in 96 well plates and exposed to the test compound for 48 hours. Compounds are tested at a single concentration, which is 10^-5 M for most compounds. The reported endpoint is percent growth (GI% or GIPRCNT), where numbers from 0 - 100% represent growth inhibition, and numbers from -100% - 0 represent cell death. For example, a value of 40 represents 60% growth inhibition. A value of 0 means no net growth occurred over the course of the experiment. […]
The panel holds about 83,000 compounds, 20% with a hit somewhere; the sample as a whole holds those more often. The source made the active and inactive calls. The calls were made as follows: active = growth percent below 10; inactive = the rest.
Tick one outcome: Y (active), N (inactive)

molecule=O=C(N/N=C/c1ccc(O)c(O)c1)c1sc2ccccc2c1Cl target_system="SF-268 CNS" qualitative_label=N
molecule="CCCCCCCCCCCCC1CCC/C=C\\CCC(=O)O1 (stereo not given)" target_system="SF-268 CNS" qualitative_label=N
molecule=Cc1nn(-c2ccccc2)c(N2CCOCC2)c1/C=N/N=c1\sc2ccccc2n1C target_system="SF-268 CNS" qualitative_label=N
molecule="OC(c1ccccc1)c1ccccn1 (stereo not given)" target_system="SF-268 CNS" qualitative_label=N

Lookup: For this molecule, state the assay outcome: "CC1(C)CN(Cc2ccccc2)CCN1Cc1ccccc1"
Found: N

Lookup: For this molecule, state the assay outcome: COc1cc(OC)cc(C2C3=C(COC3=O)Nc3cc(OC)ccc32)c1 (stereo not given)
Found: N

Lookup: For this molecule, state the assay outcome: Clc1cc(Cl)cc(N2N=C(c3cccc(Nc4ccncc4)c3)CC2c2ccccc2)c1 (stereo not given)
Found: N

* * *

- Test system: CCRF-CEM leukemia
- METHOD_DESCRIPTION: NCI-60 one-dose screen, 48 h (100 = growth as untreated, 0 = no growth, -100 = all killed)
- MEASUREMENT_SETUP: 10 µM unless noted
This is part of a sample that, as a whole, favours compounds with a hit. Of some 83,000 tested, about 20% had one in any assay.
PROPERTY_LABEL: growth (%)
Only the number, expressed in %, is required.

Answered examples (4):
line_notation=COc1ccc(C(=O)c2cc(C)c(OC)c(C)c2)c(OC)c1N(C(=O)C(Cl)Cl)C(=O)C(Cl)Cl property_label=growth readout_unit=% readout_number=10.7
line_notation=O=C(O)CNC(=O)CN1C(=O)c2ccccc2C1=O property_label=growth readout_unit=% readout_number=81.1
line_notation=CCOc1cc(CNc2ccc(N3CCOCC3)c(C(=O)O)c2)ccc1OC property_label=growth readout_unit=% readout_number=106
line_notation=C=C1C(=O)O[C@H]2[C@H]1CC/C(COC(=O)CCCc1c[nH]c3ccccc13)=C\CC[C@@]1(C)O[C@@H]21 property_label=growth readout_unit=% readout_number=1.43

The record that follows has no growth shown yet.
Sure, the documented growth for "ClCC1(Cn2cnc3c(Cl)nc(Cl)nc32)COC1" is 71.5
